Cited source for all entries: PubChem BioAssay AID624306

- Assayed system: Insulin-degrading enzyme (Homo sapiens)
- Test description: reversibility of cysteine-free IDE inhibition, late-stage follow-up, mechanism study for IDE inhibitor project, biochemical, cysteine-free mutant, FRET1 fluorogenic peptide (AID 624306)
- Applied conditions: recombinant cysteine-free IDE, FRET1 fluorescence
The source made the active and inactive calls.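 The calls were made as follows: active = inhibition of insulin-degrading enzyme persists after dilution, judged irreversible; inactive = inhibition lost or reduced after dilution, judged reversible.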
Endpoint name: outcome

Some solved entries appear below for comparison.
O=c1c2ccccc2sn1-c1cc(S(=O)(=O)N2CCOCC2)ccc1N1CCOCC1 : active
Cn1c(=O)c(C(=O)CN2CCCc3ccccc32)c(N)n(Cc2ccccc2)c1=O : inactive
COc1cc(/C=C2\SC(=S)N(NC(C)=O)C2=O)ccc1OC(=O)c1ccco1 : inactive
Cc1cccc(-c2nnc(SCc3nc4ccccc4[nH]3)n2Cc2ccco2)c1 : inactive
Cc1c(CCC(=O)NCCCn2ccnc2)c(=O)oc2cc3oc4c(c3cc12)CCCC4 : inactive
COc1cccc(-c2nnc(SCc3nc4ccccc4[nH]3)n2Cc2ccco2)c1 : inactive
O=C(O)c1ccccc1NS(=O)(=O)c1cccc(-n2sc3ccccc3c2=O)c1 : active
COc1ccc(C(=O)N2CCN(C(=O)C3COc4ccccc4O3)CC2)cc1OC (stereo not given) : inactive

For the compound shown here, Clc1cccc(-c2nnc(SCc3nc4ccccc4[nH]3)n2Cc2ccco2)c1 , give the reported outcome.
inactive

Which outcome value belongs to O=C(Nc1cccc(C(F)(F)F)c1)c1csc(-c2ccncc2)n1 ?
inactive
